# Test system: HT-29
# protocol.details: NCI tumour cell line growth inhibition, 48 h
Active and inactive are the calls of the source. Rule as the data show it: active = GI50 up to about 1.1 µM and inactive = higher.
quantity.kind: GI50

[[record]]
molecule = "CCCOC1OC(CS(=O)(=O)O)C(O)C(O)C1O (stereo unspecified)"
tested_system = "HT-29"
endpoint_value = "> 100 µM (inactive)"

[[record]]
molecule = "CCOC(=O)c1oc2c(OC)ccc3c2c1CCC3"
tested_system = "HT-29"
endpoint_value = "37.7 µM (inactive)"

[[record]]
molecule = "C/C(CC/C(C)=N/O)=N\\O"
tested_system = "HT-29"
endpoint_value = "> 100 µM (inactive)"

[[record]]
molecule = "CCCCCCCCCCCCCCCCOP(=O)(O)OP(=O)(O)OCC1OC(n2ccc(N)nc2=O)CC1O (stereo unspecified)"
tested_system = "HT-29"
endpoint_value = "> 100 µM (inactive)"

[[record]]
molecule = "BrP(NC1CCCCCC1)(c1ccccc1)(c1ccccc1)c1ccccc1"
tested_system = "HT-29"
endpoint_value = "2.1 µM (inactive)"

[[record]]
molecule = "O=c1c2ccccc2nc(-c2ccc(Br)cc2)n1NC1OC(CO)C(O)C(O)C1O (stereo unspecified)"
tested_system = "HT-29"
endpoint_value = "> 100 µM (inactive)"

[[record]]
molecule = "O=[PH](O)c1ccccn1"
tested_system = "HT-29"
endpoint_value = "> 100 µM (inactive)"

[[record]]
molecule = "O=S(=O)(O)c1ccc(O)c(/N=N/c2c(O)ccc3ccccc23)c1"
tested_system = "HT-29"
endpoint_value = "> 100 µM (inactive)"

[[record]]
molecule = "CN(C)c1ccc(C2CC(=O)CC(c3ccc(N(C)C)cc3)C23C(=O)NC(=S)NC3=O)cc1 (stereo unspecified)"
tested_system = "HT-29"
endpoint_value = "> 100 µM (inactive)"

[[record]]
molecule = "COc1ccc(C(=O)/C=C/c2cccnc2)cc1OC"
tested_system = "HT-29"
endpoint_value = "4.1 µM (inactive)"

[[record]]
molecule = "Cc1cccc(C)c1NC(=S)NC=C1C(=O)c2ccccc2C1=O"
tested_system = "HT-29"
endpoint_value = "5.78 µM (inactive)"

[[record]]
molecule = "O=C(CCc1ccccc1)On1nnc2ccccc2c1=O"
tested_system = "HT-29"
endpoint_value = "> 100 µM (inactive)"

[[record]]
molecule = "CCOc1ccc(-c2oc(/C=N/NS(=O)(=O)c3ccc(C)cc3)c([N+](=O)[O-])c2-c2ccc(OCC)cc2)cc1"
tested_system = "HT-29"
endpoint_value = "5.19 µM (inactive)"

[[record]]
molecule = "CCN(CCO)C(=O)C1(c2ccccc2)CCCCC1"
tested_system = "HT-29"
endpoint_value = "> 10 µM (inactive)"

[[record]]
molecule = "C=C1CC(C)(COc2ccc3c(C)c(C)c(=O)oc3c2C)OC1=O (stereo unspecified)"
tested_system = "HT-29"
endpoint_value = "2.17 µM (inactive)"

[[record]]
molecule = "COc1ccc(C2S/C(=C\\c3ccccc3O)C(=O)N2NC(=O)Cc2ccccc2)cc1 (stereo unspecified)"
tested_system = "HT-29"
endpoint_value = "> 100 µM (inactive)"

[[record]]
molecule = "CC1=NN(c2cccc(Cl)c2)C2(C1)C(Cl)C(=O)N2c1nc2ccccc2s1 (stereo unspecified)"
tested_system = "HT-29"
endpoint_value = "33.6 µM (inactive)"

[[record]]
molecule = "O=S1(=O)CS(=O)(=O)OCCO1"
tested_system = "HT-29"
endpoint_value = "63.1 µM (inactive)"

[[record]]
molecule = "C[C@]12CC/C(=N\\O)C=C1CC[C@@H]1[C@@H]2CC[C@]2(C)C(=N/O)/C(=C/c3ccc([N+](=O)[O-])cc3)C[C@@H]12"
tested_system = "HT-29"
endpoint_value = "4.94 µM (inactive)"

[[record]]
molecule = "C[C@@H](C[C@H]1OC(C)(C)O[C@@H]1C(C)(C)O)[C@H]1CC=C2[C@]3(C)[C@H](O)C[C@H]4C(C)(C)[C@H](O)CC[C@]4(C)[C@H]3CC[C@]21C"
tested_system = "HT-29"
endpoint_value = "2.9 µM (inactive)"

[[record]]
molecule = "O=C1NC2(CCCCC2)C2CCCCC(O)C12 (stereo unspecified)"
tested_system = "HT-29"
endpoint_value = "> 100 µM (inactive)"

[[record]]
molecule = "CC(C)(C)c1ccc(C(O)c2ccc(C(C)(C)C)cc2)cc1"
tested_system = "HT-29"
endpoint_value = "10.4 µM (inactive)"

[[record]]
molecule = "CN(C)/N=C(/c1nc2ccc(Cl)cc2nc1O)C(O)c1ccc(C(O)/C(=N\\N(C)C)c2nc3ccc(Cl)cc3nc2O)cc1 (stereo unspecified)"
tested_system = "HT-29"
endpoint_value = "> 100 µM (inactive)"

[[record]]
molecule = "[N-]=[N+]=Nc1cc(=O)n(-c2ccccc2)c(=O)n1-c1ccccc1"
tested_system = "HT-29"
endpoint_value = "> 100 µM (inactive)"

[[record]]
molecule = "CN1CCN(C2=C(Cl)C3(OCCS3)C(F)(F)C2(F)F)CC1 (stereo unspecified)"
tested_system = "HT-29"
endpoint_value = "39.4 µM (inactive)"

[[record]]
molecule = "N#C/N=[N+](\\[O-])c1ccc(C(=O)O)cc1"
tested_system = "HT-29"
endpoint_value = "20.3 µM (inactive)"

[[record]]
molecule = "CC(C)=CCN1c2ccc(Cl)cc2NC(=O)CC1C (stereo unspecified)"
tested_system = "HT-29"
endpoint_value = "17.5 µM (inactive)"

[[record]]
molecule = "COC(=O)c1ccc(NC(=O)c2cc(OC)c(OC)c(OC)c2)cc1"
tested_system = "HT-29"
endpoint_value = "1.35 µM (inactive)"

[[record]]
molecule = "CCC1NC(=O)C1NC(=O)OC (stereo unspecified)"
tested_system = "HT-29"
endpoint_value = "> 100 µM (inactive)"

[[record]]
molecule = "CCOC(=O)C(=O)C=P(c1ccccc1)(c1ccccc1)c1ccccc1"
tested_system = "HT-29"
endpoint_value = "> 100 µM (inactive)"

[[record]]
molecule = "CC1=NN2C(=N)/C(=C/c3ccc(F)cc3)C(=O)N=C2S1"
tested_system = "HT-29"
endpoint_value = "> 100 µM (inactive)"

[[record]]
molecule = "CCN(CC)CCOc1ccc(N2C(=O)c3cccc4cc([N+](=O)[O-])cc(c34)C2=O)cc1"
tested_system = "HT-29"
endpoint_value = "4.91 µM (inactive)"

[[record]]
molecule = "COc1ccc(OC)c2c(Nc3ccc(S(=O)(=O)O)c4cc(S(=O)(=O)O)cc(S(=O)(=O)O)c34)cc(C)nc12"
tested_system = "HT-29"
endpoint_value = "> 100 µM (inactive)"

[[record]]
molecule = "COc1cc2c(cc1O)CC1c3c(cc(O)c(OC)c3-2)CCN1C (stereo unspecified)"
tested_system = "HT-29"
endpoint_value = "62.2 µM (inactive)"

[[record]]
molecule = "CN(C)CCCNc1c2ccccc2[n+]([O-])c2ccccc12"
tested_system = "HT-29"
endpoint_value = "7.06 µM (inactive)"

[[record]]
molecule = "COc1ccc(/N=N/C(=N/NC(=O)c2cc(Cl)ccc2C(=O)c2ccccc2)c2ccc(N(CCC#N)CCC#N)cc2C)cc1"
tested_system = "HT-29"
endpoint_value = "21.5 µM (inactive)"

[[record]]
molecule = "COc1ccc(C(OCC2OC(n3cc(C)c(=O)[nH]c3=O)CC2n2cc(Cn3cc(F)c(=O)[nH]c3=O)nn2)(c2ccccc2)c2ccccc2)cc1 (stereo unspecified)"
tested_system = "HT-29"
endpoint_value = "6.28 µM (inactive)"

[[record]]
molecule = "COc1ccc(-c2csc3c2[N+]2(C)C=CC=C2C3N2CCCC2)cc1 (stereo unspecified)"
tested_system = "HT-29"
endpoint_value = "16.9 µM (inactive)"

[[record]]
molecule = "Cn1c(=O)c2c(nc3n2CC(=O)N3CCCCl)n(C)c1=O"
tested_system = "HT-29"
endpoint_value = "> 100 µM (inactive)"

[[record]]
molecule = "Cc1cc(OP2(=O)NCc3ccncc3O2)ccc1Cl (stereo unspecified)"
tested_system = "HT-29"
endpoint_value = "> 100 µM (inactive)"

[[record]]
molecule = "C#CCN1C(=O)CN2C(Cl)(Cl)C2(c2ccccc2)c2cc(Cl)ccc21 (stereo unspecified)"
tested_system = "HT-29"
endpoint_value = "40.9 µM (inactive)"

